target: Quadruplex DNA; test: Displacement of thiazole orange from c-myc G4 quadruplex d(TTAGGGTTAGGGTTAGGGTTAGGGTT) DNA (unknown origin) assessed as relative affinity by fluorescent intercalator displacement assay; format: nucleic-acid assay
Readout name: IC50 (nM)
Kindly provide the numeric value in nM only, without the unit symbol.

Request: Quote Quadruplex DNA IC50 for entry Cc1ccc(-c2nc3ccn4c(/C=N/NC(=N)N)c(-c5ccccc5)nc4n3c2/C=N/NC(=N)N)cc1 .
Result: 1600

Request: Please respond with reported IC50 (system Quadruplex DNA) for Clc1ccc(-c2nc3n(ccc4nc(-c5ccccc5)c(/C=N/NC5=NCCN5)n43)c2/C=N/NC2=NCCN2)cc1 .
Result: 1300

Request: Determine reported IC50 for Cc1ccc(-c2nc3ccn4c(/C=N/NC5=NCCN5)c(-c5ccccc5)nc4n3c2/C=N/NC2=NCCN2)cc1 ; test system: Quadruplex DNA.
Result: 1300

Request: Using Quadruplex DNA as the test system, report measured IC50 of Clc1ccc(-c2nc3ccn4c(/C=N/NC5=NCCN5)c(-c5ccccc5)nc4n3c2/C=N/NC2=NCCN2)cc1 .
Result: 1800
